Reported microsomal CLint values for a set of molecules
- measurement.protocol: in vitro
- conditions: human, microsomes, HLM CLint
Give the quantity in µL/min/mg, number only.

{"columns": ["molecular.string", "microsomal CLint [µL/min/mg]"],
 "data": [
  ["N#C[C@@H]1CSCN1C(=O)CNC(=O)c1ccnc2ccc(N3CC4CC(C3)O4)cc12", 7.1],
  ["N#C[C@@H]1CSCN1C(=O)CNC(=O)c1ccnc2ccc(N3C4CCC3CC4)cc12", 170]
]}

# ---- query molecule ----
// microsomal CLint lookup, key: "N#C[C@@H]1CSCN1C(=O)CNC(=O)c1ccnc2ccc(N3C4CCCC3COC4)cc12" 160

The measurements presented in this section are drawn from patent US20230312550A1.
